- System: Amaranthus retoflexus (AMARE)
- assay_explanation: Post-emergence efficacy, glasshouse pot test
- Type: in vivo
- condition_context: post-emergence application at 1000 g/ha; evaluated after 13 days; five point scale
value_type: percentage damage caused to the plant, AMARE

Q. What does the data say about its percentage damage caused to the plant, AMARE? Entry: `CC(C)C(=O)Oc1c(-c2c(F)ccc(Cl)c2OCc2ccccc2)c(=O)n(CC(F)F)c2ncccc12`
A. 5 (5=80-100%)

Q. What does the data say about its percentage damage caused to the plant, AMARE? Entry: `C#CCn1c(=O)c(-c2c(F)ccc(Cl)c2OCc2ccccc2)c(OC(=O)C(C)C)c2nccnc21`
A. 5 (5=80-100%)

Q. What does the data say about its percentage damage caused to the plant, AMARE? Entry: `C#CCn1c(=O)c(-c2c(Cl)ccc(Cl)c2OCc2ccc(OC)cc2)c(O)c2cccnc21`
A. 4 (4=60-79%)

Q. What does the data say about its percentage damage caused to the plant, AMARE? Entry: `CC(C)C(=O)Oc1c(-c2c(Cl)ccc(Cl)c2OCc2ccccc2)c(=O)n(CC(F)F)c2ncccc12`
A. 5 (5=80-100%)

Q. What does the data say about its percentage damage caused to the plant, AMARE? Entry: `COc1ccnc2c1c(O)c(-c1c(F)ccc(Cl)c1OCc1ccccc1)c(=O)n2CC(F)F`
A. 5 (5=80-100%)

Q. What does the data say about its percentage damage caused to the plant, AMARE? Entry: `C#CCn1c(=O)c(-c2c(Cl)ccc(Cl)c2OCc2ccccc2)c(OC(=O)C(C)C)c2c(OC)ccnc21`
A. 4 (4=60-79%)

Q. What does the data say about its percentage damage caused to the plant, AMARE? Entry: `C#CCn1c(=O)c(-c2c(Cl)ccc(Cl)c2OCc2ccccc2)c(O)c2nccnc21`
A. 5 (5=80-100%)
